- subject of test: Prostaglandin G/H synthase 2 (Homo sapiens, UniProt P35354)
- Sequence (P35354 whole entry): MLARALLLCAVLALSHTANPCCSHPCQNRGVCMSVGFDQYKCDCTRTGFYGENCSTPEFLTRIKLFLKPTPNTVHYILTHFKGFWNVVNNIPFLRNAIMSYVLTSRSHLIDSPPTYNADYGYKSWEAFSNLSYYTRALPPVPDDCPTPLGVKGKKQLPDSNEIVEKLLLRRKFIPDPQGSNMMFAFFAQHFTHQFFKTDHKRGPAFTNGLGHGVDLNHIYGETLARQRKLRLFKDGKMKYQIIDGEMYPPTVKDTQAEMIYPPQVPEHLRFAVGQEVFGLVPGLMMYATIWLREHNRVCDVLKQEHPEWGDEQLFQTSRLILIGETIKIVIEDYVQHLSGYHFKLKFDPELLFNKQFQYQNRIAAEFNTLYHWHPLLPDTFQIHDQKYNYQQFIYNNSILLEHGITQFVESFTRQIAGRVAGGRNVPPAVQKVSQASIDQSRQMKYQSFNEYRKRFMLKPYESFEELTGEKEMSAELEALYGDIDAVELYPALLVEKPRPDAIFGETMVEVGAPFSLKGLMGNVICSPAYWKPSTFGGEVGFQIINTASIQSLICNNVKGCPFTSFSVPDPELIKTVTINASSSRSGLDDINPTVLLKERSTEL
pIC50: −log10 of the molar value.
reported property: pIC50

**Q:** What is its pIC50 for Prostaglandin G/H synthase 2 (Homo sapiens, UniProt P35354)? Entry: C[C@@H]1O[C@@H](O[C@H]2[C@H](O)[C@@H](O)[C@H](OC[C@H]3O[C@@H](OC(=O)[C@]45CCC(C)(C)C[C@H]4C4=CC[C@@H]6[C@@]7(C)CC[C@H](O)C(C)(C)[C@@H]7CC[C@@]6(C)[C@]4(C)CC5)[C@H](O)[C@@H](O)[C@@H]3O)O[C@@H]2CO)[C@H](O)[C@H](O)[C@H]1O [CIRENSENOSIDE O]
**A:** < 4.30

**Q:** Also C[C@@H]1O[C@@H](O[C@H]2[C@H](O)[C@@H](O)[C@H](OC[C@H]3O[C@@H](OC(=O)[C@]45CCC(C)(C)C[C@H]4C4=CC[C@@H]6[C@@]7(C)CC[C@H](O[C@@H]8OC[C@H](O)[C@H](O)[C@H]8O[C@@H]8O[C@@H](C)[C@H](O)[C@@H](O[C@@H]9OC[C@@H](O[C@@H]%10O[C@H](CO)[C@@H](O)[C@H](O)[C@H]%10O)[C@@H](O)[C@H]9O)[C@H]8O)[C@@](C)(CO)[C@@H]7CC[C@@]6(C)[C@]4(C)CC5)[C@H](O)[C@@H](O)[C@@H]3O)O[C@@H]2CO)[C@H](O)[C@H](O)[C@H]1O [CLEMATICHINENOSIDE B] ?
**A:** < 4.30

src = ChEMBL document CHEMBL1177732
